Where do these numbers come from? They come from PubChem BioAssay (NCI).

Answer each item with its documented TGI.
system: T-47D breast; assay: NCI tumour cell line growth inhibition, 48 h
*1 amine or outer side, *2 acyl side, *3 side chain or, on linkers, in order; H or OH if unused. Where a SMILES comes first, the peptide text is derived from it. Bridges are numbered along the chain shown (N, C = ends). Roman numbers before positions name the chains, in order. [ ]: non-standard residue; d: D form. Actinocin(9to1) = Cc1c2oc3c(C)ccc(C(=O)[*:1])c3nc-2c(C(=O)[*:2])c(N)c1=O; NMeT = CN[CH](C(=O)O)[CH](C)O; Sar = CNCC(=O)O

Return reported TGI; argument: COc1cc(N2CCC(N3CCN(C)CC3)CC2)ccc1Nc1ncnc(Nc2ccccc2S(=O)(=O)C(C)C)n1
39.9 µM

Then this compound: O=S(CC1(O)CCCCC1)c1ccccc1 (stereo not drawn)
> 100 µM

Then this compound: Cc1c2oc3c(C)ccc(C(=O)NC4C(=O)NC(C(C)C)C(=O)N5CCCC5C(=O)N(C)CC(=O)N(C)C(C(C)O)C(=O)OC4C)c3nc-2c(C(=O)NC2C(=O)NC(C(C)C)C(=O)N3CCCC3C(=O)N(C)CC(=O)N(C)C(C(C)O)C(=O)OC2C)c(N)c1=O (stereo not drawn) (I: TVP[Sar][NMeT] / II: TVP[Sar][NMeT]; ester I:1-I:C, II:1-II:C; linker I:N-II:N via Actinocin(9to1); configuration not given here)
> 100 µM

---

tested on: LXFL 529 NSCLC; assay: NCI tumour cell line growth inhibition, 48 h
Answer each item with its documented TGI.

Return reported TGI; argument: Cc1nc(C(N)=S)sc1C(=O)CC(=O)C(=O)Nc1ccccc1[N+](=O)[O-]
> 100 µM

Then this compound: O=C(O)Cc1cc(=O)[nH]c2c1/C(=N/O)CCC2
> 100 µM

Then this compound: COc1ccc(C(=O)C(C(=O)CC(=O)Nc2cccc(C(F)(F)F)c2)c2ccc(OC)cc2)cc1 (stereo not given)
> 100 µM

Then this compound: C#CCOCn1cnc2c(Sc3c([N+](=O)[O-])ncn3C)ncnc21
> 100 µM

Then this compound: O=C(CCc1nnc2s/c(=C\c3ccc(Cl)c(Cl)c3)c(=O)n12)Nc1ccc(Cl)c(Cl)c1
> 100 µM

Then this compound: C=C1C(=O)OC2C1CCC(C)C1C=CC(=O)C12C (stereo not given)
3.35 µM

Then this compound: C/C=C1\C=C(OC)CN(CCc2c[nH]c3ccccc23)C1
> 100 µM

Then this compound: CCOC(=O)NC1C2CC(=O)OC(O2)C1OC(C)=O (stereo not given)
> 100 µM

Then this compound: COc1ccc(/C(=N\NC(=O)C(=O)NN)C(c2ccc(OC)cc2)C2(O)C(=O)Nc3ccccc32)cc1 (stereo not given)
> 100 µM

Then this compound: CC(=O)OC[C@]1(C)CCCC2(C)C1CCC1C=C(C)[C@H]3CCC12C3 (stereo not given in full)
> 100 µM

Then this compound: CCCCCCCCCCCCCCCCCCN(C)C(COC)COP(=O)([O-])OCC[N+](C)(C)C (stereo not given)
15.4 µM

Then this compound: Cc1ccc(/C(O)=C/c2nc3c(nc2NC24CC5CC(CC(C5)C2)C4)c(=O)oc2ccccc23)cc1
> 100 µM

Then this compound: CCOC(=O)N1c2c(ccn2C)-c2ccn(C)c2N1C(=O)OCC
30.9 µM

Then this compound: c1ccc2c(NCCCCCCNc3c4ccccc4nc4ccccc34)c3ccccc3nc2c1
2.42 µM

Then this compound: CC(C)OP(=O)(OC(C)C)c1nc(-c2ccccc2)n(-c2ccc([N+](=O)[O-])cc2)n1
> 100 µM

---

tested on: IGROV1 ovarian; experiment: NCI tumour cell line growth inhibition, 48 h
Where a SMILES comes first, the peptide text is derived from it. [ ]: non-standard residue; d: D form. The star is where a group is joined. Iva = CC[C](C)(N)C(=O)O; Boc = CC(C)(C)OC(=O)*; X52 = C1CCC(=NO*)C1
Answer each item with its documented TGI.

Record CCN1C(=O)C(=C/C=C/C=C2/N(C)c3ccccc3C2(C)C)C(=O)N(CC)C1=S : what is its TGI with IGROV1 ovarian?
> 100 µM

Then this compound: COc1ccc(C(=O)C(C(=O)CC(=O)Nc2cccc(C(F)(F)F)c2)c2ccc(OC)cc2)cc1 (configuration not stated)
> 100 µM

Then this compound: CC(C)[O-].CC(C)[O-].O=C1C=C([O-])C(=O)c2ccccc21.O=C1C=C([O-])C(=O)c2ccccc21.[Ti+4]
> 100 µM

Then this compound: COc1ccc2nccc(SCC(=O)O)c2c1
> 100 µM

Then this compound: CCC(=O)Nc1ccccc1C#C/C=C\C#Cc1ccccc1SC
37.3 µM

Then this compound: CCC(C)(NC(=O)C(C)NC(=O)OC(C)(C)C)C(=O)NC(C)C(=O)NC(C)(CC)C(=O)ON=C1CCCC1 (configuration not stated) (Boc-A[Iva]A[Iva]-X52; configuration not given here)
> 100 µM

Then this compound: COc1cc(S(=O)(=O)Nc2nc(-c3ccc(N4C(=O)/C(=C/C=C/c5ccccc5)N=C4c4ccccc4)cc3)cs2)ccc1Cl
> 100 µM

Then this compound: CC(C)(C)OCC1NC(=O)[C@@H]2Cc3c([nH]c4ccccc34)C(c3ccccc3)N2C1=O (some centres not stated)
> 50 µM

Then this compound: Cc1nc(C(N)=S)sc1C(=O)CC(=O)C(=O)Nc1ccccc1[N+](=O)[O-]
> 100 µM

Then this compound: CCCCN1CN2C(=O)C(C(=O)OCC)C(=O)c3sc4nc(SC)nc1c4c32 (configuration not stated)
33.5 µM

Then this compound: CC(C)(Oc1ccccc1)C(=O)Sc1c(-c2ccccc2)c(=O)n(-c2ccccc2)c(=S)n1-c1ccccc1
47.6 µM

Then this compound: COc1cc(-c2ccc(-c3ccc(C(=N)N)nc3)s2)cc(OC)c1OC
6.2 µM

Then this compound: C=C1C(C2(C)C(OC(C)=O)CC(=O)OC(C)(COC(C)=O)C2CC(=O)OC)C(OC=O)C(OC(=O)C(O)C(C)CC)C2(C)C(c3ccoc3)CC(=O)C12O (configuration not stated)
> 100 µM

Then this compound: COc1cccc(/C=C/[N+](=O)[O-])c1
6.51 µM

Then this compound: CCOC(=O)/C(=C\c1ccc(N(CCC#N)CCC#N)cc1)NC(=O)c1cc([N+](=O)[O-])ccc1Cl
> 100 µM

Then this compound: COC(=O)C1=CSC2(S1)C(C(=O)OC)=CSc1c2ssc1=O (configuration not stated)
2.9 µM

Then this compound: CC1=C(C(=O)Nc2cc(=O)n(C)c(=O)n2C)C(c2cccc([N+](=O)[O-])c2)C(C(=O)Nc2cc(=O)n(C)c(=O)n2C)=C(C)N1
> 100 µM

---

tested on: SNB-19 CNS; assay: NCI tumour cell line growth inhibition, 48 h
Answer each item with its documented GI50.

Return reported GI50; argument: COc1ccc(NC([Se])=NC23CC4CC(CC(C4)C2)C3)cc1
1.86 µM

Then this compound: C[C@]12CC[C@@H]3c4cc(-c5ccc(F)cc5)c(O)cc4CC[C@H]3[C@@H]1CC[C@@H]2O
9.61 µM

Then this compound: CCCN(CCC)c1ccc(/C=C/c2ccc3cc(OCC)ccc3n2)cc1
> 100 µM

Then this compound: Cc1cc(O)cc2c1[C@]1(C)CCC3C(C)(C)CCC[C@]3(C)[C@H]1C2 (stereo partly specified)
20.8 µM

Then this compound: NC1CCC(Nc2nc(NCc3ccc(-c4ccccc4O)nc3)c3ncn(C4CCCC4)c3n2)CC1 (stereo unspecified)
< 0.0147 µM

Then this compound: O=C(O)c1ccc(Oc2nccc(-c3c(-c4ccc(F)cc4)ncn3C3CCNCC3)n2)cc1
> 25 µM

Then this compound: O=S(=O)(NCCCNc1nccc(-c2c(-c3ccc(F)c(O)c3)nc3sccn23)n1)c1ccc(F)cc1
3.33 µM

Then this compound: C[C@@H](O)[C@H](NC(=O)N[C@@H](CC(N)=O)c1nc([C@@H](N)CO)no1)C(=O)O
> 100 µM

Then this compound: Cc1ccc(Cc2cnc(NC(=O)/C=C/c3cccc(C)c3)s2)cc1
0.224 µM

Then this compound: CCN(Cc1ccccc1)c1ccc(CO)c(Cl)c1
51.4 µM

Then this compound: CC(=Nc1ccccc1)C1=C(O)C(Cc2ccc(O)cc2)NC1=O (stereo unspecified)
0.23 µM

---

test system: NCI-H522 lung; assay: NCI tumour cell line growth inhibition, 48 h
Answer each item with its documented TGI.

Return reported TGI; argument: Cc1ccc2c(-c3ccnc(Nc4ccccc4)n3)c(-c3ccc(F)cc3)nn2n1
13.9 µM

Then this compound: N#CC1=C(N)Oc2c(ccc3ccccc23)C1c1ccccc1 (stereo unspecified)
1.7 µM

Then this compound: Nc1nc(Cl)c(/C=N\O)c(NCC2(CO)CCC2)n1
> 100 µM

Then this compound: CC(=O)CC(N)=O
> 100 µM

Then this compound: COc1ccccc1C(O)(c1ccccc1)C(O)(c1ccccc1)c1ccccc1OC (stereo unspecified)
> 100 µM

Then this compound: CC(=O)c1cccc(C)c1C(=O)O
> 100 µM

Then this compound: Cc1cc(-c2nc3sccn3c2/C=N/N=C(N)N)c(C)s1
32 µM

Then this compound: COc1cc(S(=O)(=O)Nc2nc(-c3ccc(N4C(=O)/C(=C/C=C/c5ccccc5)N=C4c4ccccc4)cc3)cs2)ccc1Cl
> 100 µM

Then this compound: CCOC(=O)Cc1ccc2c(c1O)C(=O)c1c(ccc(CC(=O)OCC)c1O)C2=O
> 100 µM

Then this compound: COc1c(OC(C)C)c(OC(C)C)c2oc(=O)n3c2c1C(c1ccccc1-n1c(C)ccc1C)C=C3 (stereo unspecified)
> 100 µM

Then this compound: Cc1cc(=O)oc2c(C)c(O)ccc12
> 100 µM

Then this compound: CCCN(CCC)c1ccc(/C=C/c2ccc3cc(OCC)ccc3n2)cc1
> 100 µM

Then this compound: CCO/C=N\c1c(C#N)c(-c2ccc(Cl)cc2)cn1-c1ccc(C)cc1
> 100 µM

Then this compound: O=C1O[C@H](c2ccccc2)[C@@H]2CC3(CCN12)OCCO3
7.48 µM

Then this compound: O=C(O)C1CCCCC1C(=O)Nn1cnnc1 (stereo unspecified)
> 100 µM

Then this compound: Clc1ccc(OCc2nnc(CCCCCCCCc3nnc(COc4ccc(Cl)cc4Cl)n3Nc3ccccc3)n2Nc2ccccc2)c(Cl)c1
24.7 µM

Then this compound: O=[N+]([O-])c1ccc(N=Nc2c(O)ccc3ccccc23)c([N+](=O)[O-])c1
> 100 µM

Then this compound: CCN1C(=O)C(=C/C=C/C=C2/N(C)c3ccccc3C2(C)C)C(=O)N(CC)C1=S
> 100 µM

Then this compound: C/C(=N\Nc1cc(C)c2ccccc2n1)c1ccccn1
0.319 µM

Then this compound: CC(=O)OC1CCn2nnc(CO)c21 (stereo unspecified)
> 100 µM

Then this compound: CCOC(=O)NC1C2CC(=O)OC(O2)C1OC(C)=O (stereo unspecified)
> 100 µM
